Test Name: NCI Yeast Anticancer Drug Screen. Data for the CLN2oe strain (AID 163)
Experimental Parameters: S. cerevisiae CLN2oe strain, at 11.0 µM
The panel holds about 79,000 compounds, 15% with a hit somewhere; the sample as a whole holds those more often. The source made the active and inactive calls. No stated cut-off is given here; in the data, active means growth inhibition above about 70%; inactive means the rest.
Answer with one of the outcomes given here: active, inactive

-- ask Outcome? `CCCCCCCCCCCCCCCCCN`
-- reply active

-- ask Outcome? O=C(Nc1ccn(C2CC(O)C(COC(c3ccccc3)(c3ccccc3)c3ccccc3)O2)c(=O)n1)c1ccccc1 (stereo unspecified)
-- reply active

-- ask Outcome? `Cc1ccc(Cl)c2c(=O)c3ccccc3[nH]c12`
-- reply inactive

-- ask Outcome? COc1cc(C(C)C(C(=O)O)C(=O)C(=O)O)cc(OC)c1OC (stereo unspecified)
-- reply inactive

-- ask Outcome? NCC(O)CSCc1ccc(Cl)cc1 (stereo unspecified)
-- reply inactive

-- ask Outcome? `CCOC(=O)C1=C(C)NC(C)=C(C(=O)OCC)C1c1ccc(Cl)cc1`
-- reply inactive
